Each recorded value in this set is attributed to ChEMBL document CHEMBL3352145.

Test: Dissociation constant, pKa of the compound
Type: physicochemical
test readout: pKa

• O=C(CCc1c(Cl)cccc1Cl)N[C@H](Cc1cc2ccc(F)cc2[nH]1)C(=O)O = 3.9
• O=C(N[C@H](Cc1cc2ccc(F)cc2[nH]1)C(=O)O)c1ccc2ccccc2c1 = 3.92
• O=C(Cc1cccc2ccccc12)N[C@H](Cc1cc2ccc(F)cc2[nH]1)C(=O)O = 3.91
• O=C(CC1c2ccccc2-c2ccccc21)N[C@H](Cc1cc2ccc(F)cc2[nH]1)C(=O)O = 3.9

* * *

Test: Aqueous solubility of the compound
Type: physicochemical
Details: buffer
test readout: solubility

Example compounds with recorded solubility:
* O=C(CCc1c(Cl)cccc1Cl)N[C@H](Cc1cc2ccc(F)cc2[nH]1)C(=O)O | > 100 µg/mL
* O=C(Cc1cccc2ccccc12)N[C@H](Cc1cc2ccc(F)cc2[nH]1)C(=O)O | 106 µg/mL
* O=C(N[C@H](Cc1cc2ccc(F)cc2[nH]1)C(=O)O)c1ccc2ccccc2c1 | > 120 µg/mL

Attention now turns to another entry.
Need solubility of `O=C(CC1c2ccccc2-c2ccccc21)N[C@H](Cc1cc2ccc(F)cc2[nH]1)C(=O)O` , thanks.
> 100 µg/mL

* * *

Target: Peptidyl-prolyl cis-trans isomerase NIMA-interacting 1 (Homo sapiens)
Sequence (Q13526 whole entry): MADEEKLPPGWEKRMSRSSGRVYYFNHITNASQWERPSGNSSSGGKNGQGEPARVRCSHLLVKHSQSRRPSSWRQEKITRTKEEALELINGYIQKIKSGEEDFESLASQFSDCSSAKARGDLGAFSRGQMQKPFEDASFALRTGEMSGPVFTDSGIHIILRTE
pKi: −log10 of the molar value.
test readout: pKi

- O=C(NC(Cc1cc2ccccc2[nH]1)C(=O)O)c1ccc2ccccc2c1 (configuration not stated): 5.72
- O=C(N[C@H](Cc1nc2cc(Cl)ccc2[nH]1)C(=O)O)c1ccc2ccccc2c1: 6.76

a = O=C(CC1c2ccccc2-c2ccccc21)N[C@H](Cc1cc2ccc(F)cc2[nH]1)C(=O)O
b = O=C(N[C@H](Cc1nc2ccccc2s1)C(=O)O)c1ccc2ccccc2c1
c = O=C(O)C1(Cc2cc3ccc(F)cc3[nH]2)CSC(CC2c3ccccc3-c3ccccc32)=N1 (racemic)
d = Cc1ccc2[nH]c(C[C@@H](NC(=O)c3ccc4ccccc4c3)C(=O)O)nc2c1
e = O=C(O)C1(Cc2cc3ccc(F)cc3[nH]2)CSC(c2ccc3ccccc3c2)=N1 (racemic)
Give the ascending ranking of the items by reported pKi. Returns: the labels arranged in the requested order.
b, e, d, c, a
(b: 4.34, e: 5.87, d: 6.11, c: 6.49, a: 7.92)
